The reported numbers originate from PubChem BioAssay (NCATS).

Test system: KB-3-1
assay notes: Cytotoxic Profiling of Annotated Libraries Using Quantitative High-Throughput Screening (AID 1296008); also: % is scaled to controls: 0 for no effect and ±100 for the full control effect; nearly all actives have a fitted effect of over 60% in size
recorded conditions: Five cell lines viability, CellTiter-Glo ATP luminescence, 48-72 h; hits give low values
Inconclusive results are not listed.
test readout: max response (%)
Your answer is read as %, so omit the unit and give the number.

Some entries whose results are on file:
| compound | max response, % |
| --- | --- |
| COc1cc(O)c(C(=O)c2ccccc2)cc1S(=O)(=O)O | -4.48 |
| CC(C(=O)O)c1cccc(Oc2ccccc2)c1 (centres undefined) | -5.06 |

Incoming: I would be grateful if you could share the reported max response for `NC(=S)N/N=C/c1cccnc1` .
Outgoing: 2.69

Incoming: I would be grateful if you could share the reported max response for COC(=O)C(c1ccccc1Cl)N1CCc2sccc2C1 (centres undefined) .
Outgoing: -8.1

Incoming: I would be grateful if you could share the reported max response for `O=[N+]([O-])c1cccc(S(=O)(=O)NCCNS(=O)(=O)c2cccc([N+](=O)[O-])c2)c1` .
Outgoing: 2.2

Incoming: I would be grateful if you could share the reported max response for O=C1C(CCS(=O)c2ccccc2)C(=O)N(c2ccccc2)N1c1ccccc1 (centres undefined) .
Outgoing: 4.22

Incoming: I would be grateful if you could share the reported max response for C[N+]12CCC(CC1)C(OC(=O)C(O)(c1ccccc1)c1ccccc1)C2 (centres undefined) .
Outgoing: 1.71

----------
assay notes: qHTS of pediatric cancer cell lines to identify multiple opportunities for drug repurposing: Primary screen for DAOY cells (AID 1347090); also: nearly all actives have a fitted effect of over 55% in size
recorded conditions: DAOY medulloblastoma viability, CellTiter-Glo luminescence, 48 h; series mostly up to 46 µM
Inconclusive results are not listed. Active and inactive are the calls of the source. Calls come from the whole dose curve; as a rule, active = well fitted cell-killing curve with a large enough effect; inconclusive = small, poorly fitted or top-dose-only effect; inactive = flat fitted curve, though single readings scatter.
Reply using exactly one outcome from y for active, n for inactive

A selection of reference data follows.
| molecule | cat |
| --- | --- |
| CCOc1ccc(NC(C)=O)cc1 | n |
| CNCCCCOc1ccccc1Cc1ccccc1 | n |
| CCCCCCCCCCCCCCC[C@H](O)[C@@H](N)CO | n |
| CCCCCCCCCCC[C@@H](C[C@@H]1OC(=O)[C@H]1CCCCCC)OC(=O)[C@H](CC(C)C)NC=O | n |
| CCCCCCCCCCCCOCCOCCOCCOCCOCCOCCOCCOCCOCCO | y |
| CCCCC(CC)COC(=O)c1ccc(N(C)C)cc1 (configuration not stated) | n |
| CN1CCN(CCC(=O)N2c3ccccc3Sc3ccc(C(F)(F)F)cc32)CC1 | n |
| CCN(CC)CCOc1ccc2c(c1)C(=O)c1cc(OCCN(CC)CC)ccc1-2 | n |
| CCCCCCCC/C=C\CCCCCCCCN | n |
| COc1ccc(-c2cc(C(F)F)nn2-c2ccc(S(N)(=O)=O)cc2)cc1F | n |

Incoming: Status in this test for NC1CCN(c2nc3c(cc2F)c(=O)c(C(=O)O)cn3-c2ccc(F)cc2F)C1 (configuration not stated) ?
Outgoing: n

Incoming: Status in this test for `O=C(O)C1(C(=O)O)CCC1.[NH2-].[NH2-].[Pt+2]` ?
Outgoing: n

Incoming: Status in this test for `CCOC(=O)c1c(N)sc2c1CCN(Cc1ccccc1)C2` ?
Outgoing: n

Incoming: Status in this test for O=C1C(CCS(=O)c2ccccc2)C(=O)N(c2ccccc2)N1c1ccccc1 (configuration not stated) ?
Outgoing: n

Incoming: Status in this test for Cc1ccccc1OCC(O)CO (configuration not stated) ?
Outgoing: n

Incoming: Status in this test for CC(CNC1CCCCC1)OC(=O)c1ccccc1 (configuration not stated) ?
Outgoing: n

Incoming: Status in this test for COP(=O)(OC)OC(c1ccc(Cl)cc1)P(=O)(OC)OC (configuration not stated) ?
Outgoing: n

Incoming: Status in this test for `NC(N)=NN=C(/C=C/c1ccc([N+](=O)[O-])o1)/C=C/c1ccc([N+](=O)[O-])o1` ?
Outgoing: y
